Sourced from PubChem BioAssay

Item-by-item account of inhibition
assay: HepG2 cytotoxicity, primary screen, cytotoxicity control for P. falciparum antimalarial project, cell-based, ATP luminescence (AID 2303); conditions: HepG2 viability, 24-48 h, at 10 µM, stronger effect = higher value;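 further: 0% = DMSO wells and 100% = digitonin-killed cells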
Calls of active or inactive are those of the source.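 How the source made its calls: active means inhibition above 50%; inactive means the rest.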

# example entries with known answers
* COCCNCc1cccc(-c2ccccc2CN(C(=O)Nc2ccccc2)C2CCN(Cc3ccccc3)CC2)c1 | 30% (inactive)
* CC(Cc1ccc(NC(=O)[C@@H](C)NCCc2cccc(Cl)c2)cc1)NCCc1cccc(Cl)c1 (some centres undefined) | 99% (active)
* C[C@@H](NC(C)(C)C)[C@H](O)c1ccc(Cl)c(C(F)(F)F)c1 | -1% (inactive)

Next molecule, please.
INPUT: Item under review: CCCCCCCc1cc(=O)c2ccccc2[nH]1 . Reported inhibition?
OUTPUT: 5% (inactive)

----------
Each entry below carries its reported fold change.
experiment: sensitizers of A549 cells to miR-34 induction, primary screen, imaging, A549 dox-inducible miR-34, nuclei and caspase counts (AID 1347080); conditions: A549 miR-34 inducible, Hoechst nuclei count, 48 h; stronger effect = lower value; cell number ratio, induced over uninduced
Give only the figure.

Would you please look over these solved cases?
* C=C(C)[C@@H]1CCC(C)=C[C@H]1c1c(O)cc(O)cc1CCCCC | 0.914
* Cc1ccc(C[N+](C)(C)C)o1 | 0.971
* CN(C(=O)Cc1ccc(Cl)c(Cl)c1)[C@H](CN1CCCC1)c1ccccc1 | 0.987
* NCC(CS(=O)(=O)O)c1ccc(Cl)cc1 (configuration not stated) | 0.961

INPUT: Quick one: fold change for O=C1Nc2ccccc2C2(CCN(CCc3ccc(C(F)(F)F)cc3)CC2)O1 ?
OUTPUT: 1.06

INPUT: Likewise for NCc1cc(=O)[nH]o1 ?
OUTPUT: 0.899

INPUT: What about CN1CC[C@@H]2CN3CCc4cccc(c43)[C@@H]2C1 ?
OUTPUT: 0.917

----------
tested on: Aerobactin synthetase IucA (Klebsiella pneumoniae hvKP1); experiment: Biochemical IucA enzyme inhibition primary screen of the Spectrum library (AID 1346200); conditions: malachite green pyrophosphate, A620, at 8 µM, stronger effect = lower value;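 further: 100% = wells without compound and 0% = wells lacking enzyme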
READOUT_KIND: activity remaining (%)
Lab book: enter the figure in %, no units written.

• O=C(O)CC[N+](=O)[O-] = 105

INPUT: # input compound: N=c1ccn2c(n1)O[C@@H]1[C@@H](O)[C@H](CO)O[C@@H]12 ; wanted: its activity remaining
OUTPUT: 97.5

INPUT: Param item: CC1=NS(=O)(=O)c2cc(Cl)ccc2N1
OUTPUT: 107

----------
test: sensitizers of A549 cells to miR-34 induction, primary screen, imaging, A549 dox-inducible miR-34, nuclei and caspase counts (AID 1347080); conditions: A549 miR-34 inducible, Hoechst nuclei count, 48 h; measured here: total cells with miR-34 induction; stronger effect = lower value
cell count reference

Consider the following illustrative entries.
- NCCCP(=O)(O)O: 9360
- CC(C)(C)OC(=O)NC1[C@H]2CNC[C@@H]12 (some centres undefined): 11400
- CC[C@@]1(C2O[C@@H](C3O[C@@](O)(CC)[C@H](C)C[C@@H]3C)C[C@@H]2C)CC[C@H]([C@]2(C)CCC3(C[C@H](O)[C@@H](C)[C@@H]([C@H](C)[C@@H](OC)[C@H](C)C(=O)O)O3)O2)O1 (some centres undefined): 3480

Please examine the following record next.
INPUT: Given the molecule c1cc2ccsc2c(N2CCNCC2)n1 , what is its reported cell count?
OUTPUT: 5170

----------
experiment: suppressors of polyQ aggregation in yeast, 75Q-TubU reporter (AID 1593); details: Yeast 75Q polyglutamine aggregation reporter
Classify: 1 when score is strictly less than 1; 0 when score is not.

- NC(=O)c1cc([N+](=O)[O-])cc([N+](=O)[O-])c1: 0
- CC[C@@H]1/C=C/C=C/C[C@H](C)[C@@H](O)[C@](C)(O)C(=O)[C@H](C)[C@@H](O)[C@H](C)C(=O)[C@H](C)[C@@H](O)[C@H](C)/C=C/C(=O)O[C@H]2[C@@H](C)[C@@H](CC1)O[C@@]1(CC[C@@H](C)[C@@H](C[C@H](C)O)O1)[C@@H]2C: 1
- CN1C[C@H](CO)C=C2c3cccc4[nH]cc(c34)C[C@H]21: 0

INPUT: Decide: score of OC1CCCCC1N1CCC(c2ccccc2)CC1 (configuration not stated) strictly below 1?
OUTPUT: 0

INPUT: Then what about the compound O=C1CCCN1CC#CCN1CCCC1 ?
OUTPUT: 0

INPUT: Another: CN(C)[C@@H]1C(=O)C(C(N)=O)=C(O)[C@@]2(O)C(=O)C3=C(O)c4c(O)cccc4[C@@](C)(O)[C@H]3[C@H](O)[C@@H]12
OUTPUT: 1

INPUT: Same lookup for CCC(C)C(=O)O[C@H]1[C@H](O)C2C(CN3CC(C)CCC3[C@@]2(C)O)C2C[C@]34O[C@]5(O)C(OC(=O)C(C)(O)CC)CC[C@@]3(C)C5C(OC(C)=O)[C@@H](OC(C)=O)C4[C@@]21O (some centres not stated) , please.
OUTPUT: 0

INPUT: Also [N-]=[N+]=CC(=O)OCC(N)C(=O)O (configuration not stated) , if possible.
OUTPUT: 0

INPUT: Try CNC(C)(C)Cc1ccccc1 next.
OUTPUT: 0

INPUT: Same for CC[C@H]1C(=O)OC[C@@H]1Cc1cccn1C
OUTPUT: 0

INPUT: Try this compound too: c1ccc2nc(N3CCNCC3)ccc2c1
OUTPUT: 0

INPUT: Consider next the compound C/C=C(\C)C(=O)O[C@H]1C[C@@H](OC(C)=O)[C@@]2(C(=O)OC)CO[C@@H]3C2[C@]12CO[C@](O)(C(=O)OC)[C@H]2[C@](C)(C12O[C@@]1(C)[C@H]1C[C@@H]2OC2OC=C[C@@]21O)[C@@H]3O (some centres not stated) in the same way.
OUTPUT: 0

INPUT: CC1CC[C@@]2(NC1)OC1CC3C4CC=C5CC(O)CCC5(C)C4CCC3(C)C1[C@@H]2C (some centres not stated) , same question.
OUTPUT: 0

INPUT: Next record, please: C[C@@H]([C@H](O)c1ccccc1)N(C)C
OUTPUT: 0

----------
target: L-lactate dehydrogenase (Plasmodium falciparum (isolate CDC / Honduras)); test: PfLDH activity inhibition – cell lysate, 3D7 strain, counter-screen for P. falciparum growth inhibition project (AID 2304);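 further: 0% = vehicle and 100% = reference inhibitor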; details: P. falciparum 3D7 crude extract, LDH APAD/NBT absorbance; at 2 µM; stronger effect = higher value
Recorded inhibition for the following molecules
Record the value in %, omitting the unit from your answer.

• O=C(Cc1cc(=O)oc2cc(O)ccc12)NC1CCC(CN2CCC(c3c[nH]c4ccccc34)CC2)CC1 (centres undefined) = -1
• COC(=O)c1ccc(CC(C)NCC(O)c2ccc3ccc4ccccc4c3c2)cc1 (centres undefined) = -2
• O=[N+]([O-])c1ccc(Oc2c(Cl)cc(S(=O)(=O)N3CCC(CN4CCC(c5c[nH]c6ccccc56)CC4)CC3)cc2Cl)c(Cl)c1 = -1
• CCCN(CCC)CCOC(=O)C(OCC)(c1ccccc1)c1ccccc1 = 0
• O=C(/C=C/c1ccc(Cl)c(Cl)c1)NCCC1CCC(N2CCC(c3c[nH]c4ccccc34)CC2)CC1 (centres undefined) = -1
• Cn1cc(CN2CCC(CCOC(c3ccccc3)c3ccccc3)CC2)cn1 = -5
• N#Cc1ccc(N(CC(=O)NCCc2ccccc2)CC2CC2)c2ccccc12 = -3
• CC[C@H]1C[N+]2([O-])CC[C@@H]1C[C@H]2[C@H](O)c1cc(-c2ccccc2)nc2ccc(OC)cc12 = 0

Pending molecule:
INPUT: Would you mind telling me what inhibition value was observed for O=C(Nc1ccccc1C(F)(F)F)NC1CCC(CN2CCC(c3c[nH]c4ccccc34)CC2)CC1 (centres undefined) ?
OUTPUT: -3

----------
Reported values of cell count for individual entries
experiment: sensitizers of A549 cells to miR-34 induction, primary screen, imaging, A549 dox-inducible miR-34, nuclei and caspase counts (AID 1347080); conditions: A549 miR-34 inducible, Hoechst nuclei count, 48 h; measured here: total cells without miR-34 induction
Reply with the value as a number alone.

Below are worked cases with known answers.
* CC(=O)OCC1=C(C(=O)O)N2C(=O)[C@@H](N)[C@H]2SC1 | 9340
* C[C@]12CCC(O)CC1=CCC1C2CC[C@]2(C)C(=O)CCC12 (some centres not stated) | 6860
* N[C@@]1(C(=O)O)CC[C@@H](C(=O)O)C1 | 10000
* CC1=C2C[C@H]3[C@@H](CC=C4C[C@@H](O)CC[C@@]43C)[C@@H]2CC[C@]12O[C@@H]1C[C@H](C)CN[C@H]1[C@H]2C | 4900
* O=c1[nH]c(=O)n(Cl)c(=O)n1Cl | 8920

INPUT: Recorded cell count of CC(C)Oc1cccnc1N(C)C1CCN(Cc2ccccc2)CC1 , please.
OUTPUT: 9520

INPUT: Repeat with NCC(CP(=O)(O)O)c1ccc(Cl)cc1 (configuration not stated)
OUTPUT: 9430
